Measured Ki values are reported for all entries that follow.
target: Glutamate receptor (Oryctolagus cuniculus)
Sequence (G1SXH9 whole entry): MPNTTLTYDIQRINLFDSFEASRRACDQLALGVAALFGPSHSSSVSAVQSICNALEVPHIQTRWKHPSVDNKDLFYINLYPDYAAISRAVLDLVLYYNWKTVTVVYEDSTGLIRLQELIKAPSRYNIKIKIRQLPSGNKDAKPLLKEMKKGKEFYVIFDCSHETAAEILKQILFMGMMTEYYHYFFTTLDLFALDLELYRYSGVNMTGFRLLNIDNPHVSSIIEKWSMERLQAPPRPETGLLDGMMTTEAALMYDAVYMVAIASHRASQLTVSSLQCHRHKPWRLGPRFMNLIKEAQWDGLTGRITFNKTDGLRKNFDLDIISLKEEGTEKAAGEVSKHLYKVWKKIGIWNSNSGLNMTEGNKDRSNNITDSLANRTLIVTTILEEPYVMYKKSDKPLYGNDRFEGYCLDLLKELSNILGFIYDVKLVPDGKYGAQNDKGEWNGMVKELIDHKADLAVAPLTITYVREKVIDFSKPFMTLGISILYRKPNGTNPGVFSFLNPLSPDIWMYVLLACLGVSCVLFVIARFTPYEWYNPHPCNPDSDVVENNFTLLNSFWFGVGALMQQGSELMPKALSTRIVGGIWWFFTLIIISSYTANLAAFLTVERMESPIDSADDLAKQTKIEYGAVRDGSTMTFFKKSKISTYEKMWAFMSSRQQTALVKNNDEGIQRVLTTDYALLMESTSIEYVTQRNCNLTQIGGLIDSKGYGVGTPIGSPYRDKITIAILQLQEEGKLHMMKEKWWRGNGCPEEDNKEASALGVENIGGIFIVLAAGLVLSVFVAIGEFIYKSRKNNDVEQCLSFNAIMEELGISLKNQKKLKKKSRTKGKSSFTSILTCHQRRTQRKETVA
Your answer should be a plain number; it is taken to be in nM.

entry_smiles | Ki (nM)
N[C@@H](Cn1oc(=O)[nH]c1=O)C(=O)O | 16.5

Form field Ki for item C/C(=C\C=C\[C@@H](C)C(=O)O)[C@H]1CN[C@H](C(=O)O)[C@H]1CC(=O)O on Glutamate receptor (Oryctolagus cuniculus): 0.71
